Entries annotated with measured pIC50
# measurement.target: human CCR6 (Homo sapiens, UniProt P51684)
# Construct: expressed in transfected cells; host or cells: HEK-293
# Sequence (P51684 whole entry): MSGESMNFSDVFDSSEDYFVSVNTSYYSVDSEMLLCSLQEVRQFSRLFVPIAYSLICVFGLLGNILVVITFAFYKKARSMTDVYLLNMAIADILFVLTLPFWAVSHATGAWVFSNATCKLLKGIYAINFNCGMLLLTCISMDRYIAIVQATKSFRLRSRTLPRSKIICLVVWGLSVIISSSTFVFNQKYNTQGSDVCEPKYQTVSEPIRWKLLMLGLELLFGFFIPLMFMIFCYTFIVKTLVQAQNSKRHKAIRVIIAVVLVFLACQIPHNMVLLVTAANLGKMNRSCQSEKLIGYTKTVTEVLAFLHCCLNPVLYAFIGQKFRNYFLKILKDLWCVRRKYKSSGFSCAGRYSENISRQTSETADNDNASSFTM
# assay.remarks: FLIPR assay (inhibition of CCL20-induced calcium signal)
# Type: cell-based
# details: HEK-293 cells expressing human CCR6; mean values where determined several times; read-out: FLIPR IC50
# Procedure: FLIPR assay: The bioactivity of compounds is tested in a fluorometric imaging plate reader (FLIPR: Molecular Devices) using engineered HEK-293 cells expressing the human CCR6 (GenBank: AY242126). […] Changes in fluorescence are monitored before and after addition of the test compounds and agonist. […] The calculated IC50 values may fluctuate depending on the daily assay performance. […]
pIC50: −log10 of the molar value.

molecule	measurement.target	pIC50
CN1CC(C)([C@](O)(c2ccc(C3CCC3)cc2)c2cncc(-c3noc(C(C)(C)O)n3)c2)C1 [Example 557]	human CCR6 (Homo sapiens, UniProt P51684)	7.33
CC(C)C(=O)NC(C)(C)C#Cc1cncc([C@@](O)(c2ccc(C(C)C)cc2)C2(C)CN(C)C2)c1 [Example 589]	human CCR6 (Homo sapiens, UniProt P51684)	6.81
CC(C)c1ccc([C@](O)(c2cncc(-c3noc(C4CCN(C(=O)C5COC5)CC4)n3)c2)C2(C)CN(C)C2)cc1 [Example 476]	human CCR6 (Homo sapiens, UniProt P51684)	6.95
CC(=O)N1CCC(c2nc(-c3cncc([C@@](O)(c4ccc(OC(C)C)cc4)C4(C)CN(C)C4)c3)no2)CC1 [Example 555]	human CCR6 (Homo sapiens, UniProt P51684)	6.01
CC(C)c1ccc([C@](O)(c2cncc(C#CC3(S(N)(=O)=O)CC3)c2)C2(C)CN(C)C2)cc1 [Example 607]	human CCR6 (Homo sapiens, UniProt P51684)	6.98
COC1(c2nc(-c3cncc([C@@](O)(c4ccc(C(C)C)cc4)C4(C)CN(C)C4)c3)no2)CCN(C(C)=O)CC1 [Example 472]	human CCR6 (Homo sapiens, UniProt P51684)	7.10
CC(C)c1ccc([C@](O)(c2cncc(-c3noc(C4CCN(Cc5ccccc5)C4=O)n3)c2)C2(C)CN(C)C2)cc1 (some centres unmarked) [Example 351]	human CCR6 (Homo sapiens, UniProt P51684)	7.56
CC(C)NC(=O)OCc1cncc([C@@](O)(c2ccc(C(C)C)cc2)C2(C)CN(C)C2)c1 [Example 325]	human CCR6 (Homo sapiens, UniProt P51684)	6.23
CC(C)c1ccc([C@](O)(c2cncc(C#CC3(O)CCN(C(=O)OC(C)(C)C)C3)c2)C2(C)CN(C)C2)cc1 (some centres unmarked) [Example 406]	human CCR6 (Homo sapiens, UniProt P51684)	7.42
Cc1ncc(C(C)(O)CCc2cncc([C@@](O)(c3ccc(C(C)C)cc3)C3(C)CN(C)C3)c2)s1 (some centres unmarked) [Example 647]	human CCR6 (Homo sapiens, UniProt P51684)	7.12
CC(C)c1ccc([C@](O)(c2cncc(-c3noc(C4(O)CCC4)n3)c2)C2(C)CN(C)C2)cc1 [Example 129]	human CCR6 (Homo sapiens, UniProt P51684)	7.44
CC(C)c1ccc([C@](O)(c2cncc(-c3noc(C4CCN(S(=O)(=O)C5CCCC5)CC4)n3)c2)C2(C)CN(C)C2)cc1 [Example 386]	human CCR6 (Homo sapiens, UniProt P51684)	7.39
CC(C)c1ccc([C@](O)(c2cncc(C#CC3CCN(S(C)(=O)=O)CC3)c2)C2(C)CN(C)C2)cc1 [Example 603]	human CCR6 (Homo sapiens, UniProt P51684)	7.51
CC(=O)N1CCC(O)(C#Cc2cncc([C@@](O)(c3ccc(C(C)C)cc3)C3(C)CN(C)C3)c2)CC1 [Example 597]	human CCR6 (Homo sapiens, UniProt P51684)	6.40
